Target: P2X purinoceptor 7 (Homo sapiens)
Sequence (whole entry): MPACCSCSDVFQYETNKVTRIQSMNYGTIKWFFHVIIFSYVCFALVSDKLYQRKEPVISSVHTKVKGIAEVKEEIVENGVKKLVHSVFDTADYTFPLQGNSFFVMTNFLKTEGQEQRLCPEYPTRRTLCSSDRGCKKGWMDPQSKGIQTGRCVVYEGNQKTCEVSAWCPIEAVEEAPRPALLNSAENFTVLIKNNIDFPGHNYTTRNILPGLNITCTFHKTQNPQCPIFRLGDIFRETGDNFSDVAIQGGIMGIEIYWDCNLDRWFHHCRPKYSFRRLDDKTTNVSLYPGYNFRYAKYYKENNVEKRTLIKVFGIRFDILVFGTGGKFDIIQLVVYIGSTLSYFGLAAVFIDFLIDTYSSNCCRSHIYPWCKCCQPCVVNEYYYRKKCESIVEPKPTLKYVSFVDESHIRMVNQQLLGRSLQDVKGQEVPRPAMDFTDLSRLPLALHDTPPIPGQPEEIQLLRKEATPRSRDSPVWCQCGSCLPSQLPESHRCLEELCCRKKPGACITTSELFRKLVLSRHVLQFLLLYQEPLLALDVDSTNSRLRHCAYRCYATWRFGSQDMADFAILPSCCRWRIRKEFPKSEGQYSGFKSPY
Test: Antagonist activity at human P2X7 receptor expressed in Xenopus laevis oocytes assessed as reduction in ATP-induced channel currents at 100 uM by TEVC electrophysiology assay relative to control
Format: cell-based
Conditions: Oocyte
Activity calls are given as the source filed them. The rule behind the calls is not given here.
VALUE TYPE: inhibition

Example entries and their recorded answers appear below.
O=C(Cn1cnc2c(Cl)nc(F)nc21)c1ccc(Cl)cc1Cl 24%
O=C(Cn1cnc2c(-c3ccccc3)ncnc21)c1ccc(Cl)cc1Cl 11%
Cn1cnc2c1c(=O)n(C(=O)c1ccccc1Cl)c(=O)n2C 5%
COc1ncnc2c1ncn2C(=O)c1ccccc1Cl 0%
Cn1c(=O)c2c(ncn2S(=O)(=O)c2ccc(F)cc2F)n(C)c1=O 1%

Fill in reported inhibition for this entry: O=S(=O)(c1ccccc1Cl)n1cnc2c(Cl)ncnc21
9%

Fill in reported inhibition for this entry: O=C(CCn1cnc2c(Cl)ncnc21)c1ccc(Cl)cc1Cl
6%

Fill in reported inhibition for this entry: Cn1cnc2c(=O)n(Cc3ccccc3Cl)c(Cl)nc21
9%

Fill in reported inhibition for this entry: Nc1nc(Cl)c2ncn(S(=O)(=O)c3ccccc3Cl)c2n1
inactive

Fill in reported inhibition for this entry: Cn1c(=O)c2c(ncn2S(=O)(=O)c2cc(Cl)ccc2Cl)n(C)c1=O
inactive

Fill in reported inhibition for this entry: O=C(Cn1cnc2c(Cl)ncnc21)c1ccc(Cl)cc1
11%

---

Molecular target: UniProt:Q99572
Assay: Antagonist activity at human P2X7 receptor expressed in HEK293 cells assessed as reduction in benzoyl-ATP-induced YO-PRO-1 dye uptake at 10 uM pre-incubated for 20 mins before YO-PRO-1 addition and measured after 25 mins by fluorescence plate reader analysis relative to control
Assay type: cell-based
Conditions: time 45.0 min
VALUE TYPE: inhibition

Example entries and their recorded answers appear below.
Cc1cc(F)ccc1S(=O)(=O)n1cnc2c1c(=O)n(C)c(=O)n2C 23%
Cn1c(=O)c2c(ncn2CC(=O)c2ccc(Cl)cc2Cl)n(C)c1=O 0%
Cn1c(=O)c2c(ncn2S(=O)(=O)c2ccc(Cl)cc2Cl)n(C)c1=O 7%
O=C(Cn1cnc2c(Cl)ncnc21)c1ccc(F)cc1 34%
Cn1c(=O)c2c(ncn2S(=O)(=O)c2ccc(F)cc2Cl)n(C)c1=O 20%

Fill in reported inhibition for this entry: O=C(CCn1cnc2c(Cl)ncnc21)c1ccc(Cl)cc1Cl
19%

Fill in reported inhibition for this entry: Cn1c(=O)c2c(ncn2S(=O)(=O)c2ccc(F)cc2)n(C)c1=O
10%
